# target: Scavenger receptor class B member 1 (Mus musculus)
# assay_details: inhibitors of SR-BI [3H]CE-HDL uptake, late-stage follow-up, orthogonal assay for SR-BI HDL uptake inhibitor project, wild-type cells, scintillation, powder samples (AID 588836)
# measurement_setup: CHO mSR-BI cells, [3H]cholesteryl ester HDL uptake, at 1 µM, hits give low values
recorded_endpoint: HDL cholesterol uptake (%)

Solved cases (3 shown):
CCOC(=O)N1CCC(NC(=O)c2ccc3c(c2)N(Cc2ccc(F)cc2)CCS3)CC1 | 45.9
Cc1ccc2oc(-c3cccc(NC(=O)c4cc(-n5cnnc5)ccc4Cl)c3)nc2c1 | 54.8
COc1ccc(-c2nnn(CC(=O)N(C3CCCCC3)C(C)C(=O)NC3CCCC3)n2)cc1OC (stereo not given) | 48.9

[1] O=C(Nc1ccc(Cl)cc1C(=O)c1ccc(Cl)cc1)c1cc(Br)ccc1NS(=O)(=O)c1ccc(Cl)cc1
[2] CCC(=O)N1CCc2cc(-c3csc(NC(=O)c4ccco4)n3)ccc21
*Q* When the recorded HDL cholesterol uptake values are compared, which is smaller: that of 1 or that of 2 ? Select an item and report its label.
*A* 2
(2: 52.6%, 1: 85.2%)
